The measured values listed here are drawn from patent US20070264679A1.

Target: Reticulocyte LOX (Oryctolagus cuniculus)
Construct: purchased Biomol Inc. (Plymouth Meeting, Pa., USA)
Sequence (P12530 1-663): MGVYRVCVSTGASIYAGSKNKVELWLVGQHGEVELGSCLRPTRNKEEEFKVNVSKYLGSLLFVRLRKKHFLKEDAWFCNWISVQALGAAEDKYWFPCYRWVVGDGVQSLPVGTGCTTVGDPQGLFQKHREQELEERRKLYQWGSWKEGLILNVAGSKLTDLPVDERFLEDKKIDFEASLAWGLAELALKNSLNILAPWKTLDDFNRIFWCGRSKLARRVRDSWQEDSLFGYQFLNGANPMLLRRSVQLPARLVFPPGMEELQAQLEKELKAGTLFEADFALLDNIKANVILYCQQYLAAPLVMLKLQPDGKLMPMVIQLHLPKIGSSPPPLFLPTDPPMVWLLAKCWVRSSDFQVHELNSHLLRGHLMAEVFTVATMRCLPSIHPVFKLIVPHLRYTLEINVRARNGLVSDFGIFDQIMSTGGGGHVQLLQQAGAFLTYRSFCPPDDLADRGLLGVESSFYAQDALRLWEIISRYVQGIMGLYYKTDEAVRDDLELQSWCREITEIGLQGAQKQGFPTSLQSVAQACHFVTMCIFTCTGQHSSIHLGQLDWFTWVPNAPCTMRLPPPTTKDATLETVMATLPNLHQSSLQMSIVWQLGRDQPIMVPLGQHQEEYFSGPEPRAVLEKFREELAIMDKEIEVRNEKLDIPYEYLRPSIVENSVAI
Assay: Kinetics of oxygenation of linoleoylated substrates by reticulocyte LOX
Type: biochemical, Rabbit
Settings: reticulocyte LOX 8.2 units/ml, 50 mM phosphate buffer pH 7.4, 25° C.
Please provide measured Vm for the entries that follow.
API: value field is a number in units/mg; no unit string.

Note to self: Vm of CCCCC/C=C\C/C=C\CCCCCCCC(=O)OCC(O)COP(=O)([O-])OCC[N+](C)(C)C (centres unmarked) [Linoleoyl-lysoPC, 1-linoleoyl Lysophosphatidylcholine] with Reticulocyte LOX (Oryctolagus cuniculus) was 1622

Note to self: Vm of CCCCC/C=C\C/C=C\CCCCCCCC(=O)O [Linoleic acid, linoleic acid] with Reticulocyte LOX (Oryctolagus cuniculus) was 545

Note to self: Vm of CCCCC/C=C\C/C=C\CCCCCCCC(=O)OC[C@H](COP(=O)(O)O)OC(=O)CCCCCCC/C=C\C/C=C\CCCCC [Dilinoleoyl-PA] with Reticulocyte LOX (Oryctolagus cuniculus) was 1029

Note to self: Vm of CCCCC/C=C\C/C=C\CCCCCCCC(=O)OCC(O)COP(=O)(O)O (centres unmarked) [Linoleoyl-lysoPA] with Reticulocyte LOX (Oryctolagus cuniculus) was 443

Note to self: Vm of CCCCC/C=C\C/C=C\CCCCCCCC(=O)OC[C@H](COP(=O)([O-])OCC[N+](C)(C)C)OC(=O)CCCCCCC/C=C\C/C=C\CCCCC [Dilinoleoyl-PC, Dilinoleoyl phosphatidylcholine] with Reticulocyte LOX (Oryctolagus cuniculus) was 646
